- Tested on: human SKMEL-28 melanoma
- method-description: MTT antiproliferative assay, SKMEL-28
- Type: cell-based
- conditions: 72 h treatment, sextuplicates, read-out: GI50 in vitro values, SKMEL-28
assay-endpoint: GI50 (µM)
Numbers only here, please. The scale is µM.

What measured GI50 goes with COC(=O)/C=C/C=C/C1=CCC2C(C)(C)CCC[C@]2(C)[C@@H]1C=O (some centres unmarked) [Compound 10] ? 25

May I ask what GI50 has been recorded for CC(C)(C)OC(=O)/C=C/C1=CCC2C(C)(C)CCC[C@]2(C)[C@@H]1C=O (some centres unmarked) [Compound 8] ? 41

Give the measured GI50 of CC1(C)CCCC2(C)C(C=O)C(C=CC(=O)OCc3ccccc3)=CCC12 (centres unmarked) [Compound 9] . 39

Record request: GI50 value, item CCOC(=O)/C=C/C1=CCC2C(C)(C)CCC[C@]2(C)[C@@H]1C=O (some centres unmarked) [Compound 6] 29

Any idea what GI50 was measured for CCOC(=O)C(C)=CC1=CCC2C(C)(C)CCCC2(C)C1C=O (centres unmarked) [Compound 7] ? 37

* * *

- Test system: panel of cancer cell lines (A549, SKMEL-28, MCF-7, U373, Hs683)
- method-description: MTT antiproliferative assay, panel of five cancer cell lines
- Assay type: cell-based, human
- conditions: mean over five cell lines, 72 h treatment, MTT assay; read-out: GI50 in vitro values, Mean + SEM
assay-endpoint: GI50 (µM)
Please give a number only; it is taken to be in µM.

Fill blank: measured GI50 of the compound CCOC(=O)C(C)=CC1=CCC2C(C)(C)CCCC2(C)C1C=O (centres unmarked) is ____. 31

For the compound shown here, CCOC(=O)/C=C/C1=CCC2C(C)(C)CCC[C@]2(C)[C@@H]1C=O (some centres unmarked) , give the reported GI50. 30

Param item = CC1(C)CCCC2(C)C(C=O)C(C=CC(=O)OCc3ccccc3)=CCC12 (centres unmarked) ; retrieve measured GI50. 33

Which GI50 value belongs to COC(=O)/C=C/C=C/C1=CCC2C(C)(C)CCC[C@]2(C)[C@@H]1C=O (some centres unmarked) ? 25

Endpoint output: GI50 of CC(C)(C)OC(=O)/C=C/C1=CCC2C(C)(C)CCC[C@]2(C)[C@@H]1C=O (some centres unmarked) . Value? 34

What does the data say about its GI50? Entry: CC(=O)/C=C/C1=CCC2C(C)(C)CCC[C@]2(C)[C@@H]1C=O (some centres unmarked) 24

Quick check: GI50 of COC(=O)/C=C/C1=CC[C@H]2C(C)(C)CCC[C@]2(C)[C@H]1C=O ? 20

Item under review: CC1(C)CCC[C@@]2(C)C1CC=C(/C=C/C#N)[C@H]2C=O (some centres unmarked) . Reported GI50? 33

* * *

- System: human SKMEL-28 melanoma
- method-description: MTT antiproliferative assay, SKMEL-28
- Format: cell-based
- conditions: 72 h treatment, sextuplicates, read-out: GI50 in vitro values, SKMEL-28
assay-endpoint: GI50

Consider the molecule COC(=O)/C=C/C1=CC[C@H]2C(C)(C)CCC[C@]2(C)[C@H]1C=O [Compound 5] and give its measured GI50. 27 µM

Reported GI50 for CC1(C)CCC[C@@]2(C)C1CC=C(/C=C/C#N)[C@H]2C=O (stereo partly drawn) [Compound 11] : what is it? 42 µM

Name the reported GI50 value associated with the molecule CC(=O)/C=C/C1=CCC2C(C)(C)CCC[C@]2(C)[C@@H]1C=O (stereo partly drawn) [Compound 12] 28 µM

Attribution: patent US20180237362A1
